Target: T1, (7× His)-PSD-95-PDZ2 wild type (UniProt P78352 160-246)
T1 construct: domain: PDZ2; recombinant from E. coli; also called PSD-95-PDZ2 WT; not shown: 7x His tag
T1 sequence (P78352 160-246): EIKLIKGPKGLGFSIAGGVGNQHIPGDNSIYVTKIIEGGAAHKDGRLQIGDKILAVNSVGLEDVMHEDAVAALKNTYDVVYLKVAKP
Experiment: FP competition
property measured: Ki (nM)
Give bare numbers, in nM.

[[record]]
binder = "TXLETTFTGDGTPKTIRVTQPGQ (cyclic; D-Pro; His(1-Me) at 106) [cyclic nNOS β-hairpin peptide His(1-Me)]"
property_measured = "Ki"
measurement_unit = "nM"
observed_measurement = 2900


Next item in the queue.
Request the reported Ki associated with TXLETTFTGDGTPKTIRVTQPGQ (cyclic; D-Pro; His(3-Me) at 106) [cyclic nNOS β-hairpin peptide His(3-Me)]
400

Origin of values: patent US20230220021A1
